- test: NCI Yeast Anticancer Drug Screen. Data for the mlh1 rad18 strain (AID 175)
- condition-details: S. cerevisiae mlh1 rad18 strain growth inhibition; at 50.0 µM; active compounds read high
About 79,000 compounds went through this panel and 15% of them were active in at least one assay; those are over-represented in the sample as a whole. Where a SMILES comes first, the peptide text is derived from it. [ ]: non-standard residue; d: D form. The star is where a group is joined. ξ: configuration not given here. X15 = COc1ccc(C(N*)c2ccc(OC)cc2)cc1; NMeF = CN[C@@H](Cc1ccccc1)C(=O)O; NMeD = CN[C@@H](CC(=O)O)C(=O)O; NMeV = CN[C@H](C(=O)O)C(C)C; ξNMeV = CNC(C(=O)O)C(C)C; Boc = CC(C)(C)OC(=O)*; ξNMeA = CNC(C)C(=O)O; ξV = CC(C)C(N)C(=O)O
value-type: growth inhibition (%)

compound	value-type	reading
[N-]=[N+]=Nc1cc(-c2ccccc2)nc2cc3c(cc12)OCO3	growth inhibition	-7.2
CS(=O)(=O)/C=C/c1ccccc1	growth inhibition	0.75
CC(=O)OCC(OC(C)=O)C1OC(OCc2ccccc2)C(OC(C)=O)C(OC(C)=O)C1OC(C)=O (stereo not given)	growth inhibition	-5.85
CC(=O)NS(=O)(=O)c1ccc(NC(=O)CCC(=O)O)cc1	growth inhibition	4
CCCOC(=O)c1c(C)c(C)cc(C)c1C	growth inhibition	-12.3
COc1ccc(-c2c3c(nc4nc(SC)nc(SC)c24)CCCC3)cc1OC	growth inhibition	6.8
O=C(O)c1ccccn1	growth inhibition	30
NC(=S)NNC(=S)NC(=O)c1ccco1	growth inhibition	-18.7
CSCCC(NCc1c(O)ccc2ccc(=O)oc12)C(=O)O (stereo not given)	growth inhibition	-38
c1ccc(C(=C2CCC2)c2c3ccccc3cc3ccccc23)cc1	growth inhibition	-20.1
COc1ccc(C(NC(=O)C[C@@H](C(=O)N(C)C(C)C(=O)O)N(C)C(=O)[C@@H]2CCCN2C(=O)[C@H](C(C)C)N(C)C(=O)C(C(C)C)N(C)C(=O)[C@H](Cc2ccccc2)N(C)C(=O)C(NC(=O)OC(C)(C)C)C(C)C)c2ccc(OC)cc2)cc1 (stereo not given in full) (Boc-[ξV][NMeF][ξNMeV][NMeV]P[NMeD](X15)[ξNMeA]-OH)	growth inhibition	-31.4
CCCN1CCc2c([nH]c3cc(OC)ccc23)C1C (stereo not given)	growth inhibition	3.2
CCOc1ccc(NC(=O)C(=O)C(/C(=N/N)C(=O)OC)c2nc3ccc([N+](=O)[O-])cc3[nH]c2=O)cc1 (stereo not given)	growth inhibition	21.9
O=C(O)/C=C/c1ccc(OCc2ccccc2)c(OCc2ccccc2)c1	growth inhibition	-6.9
CN(C)Cc1onc(-c2c(Cl)cccc2Cl)c1C(=O)O	growth inhibition	8.4
COc1ccc(C(Cc2ccccc2Cl)N(CCO)CCO)cc1 (stereo not given)	growth inhibition	-5.2
CC(=O)OCc1ccc(Cl)cc1Cl	growth inhibition	-12.2
CC(=O)N[C@@H]1CCC[C@H](NC(C)=O)C1	growth inhibition	-23.9
CCc1nnc2ncccn12	growth inhibition	-2.9
O=C(NNC(=O)c1ccc(Cl)c(Cl)c1)c1ccc(Cl)c(Cl)c1	growth inhibition	-33.1

---

- test: NCI Yeast Anticancer Drug Screen. Data for the mec2-1 strain (AID 157)
- condition-details: S. cerevisiae mec2-1 strain, at 50.0 µM, active compounds read high
Compounds without any hit were thinned out: in the full panel of roughly 79,000, 15% have a hit.
Collected growth inhibition values appear next to each entry.

compound	unit-abbreviation	growth inhibition
CNC(=O)Nc1ccccc1	%	-0.55
O=C(c1ccccc1)N1C(=O)c2ccccc21	%	5.75
Nc1ncc2ncn(CCO)c2n1	%	-15.4
O=c1c2ccccc2nnn1O	%	0.2
COc1ccc(C(C)(C)c2ccccc2)cc1	%	-45.1
CCOC(=O)C(CC)C1=CCCCC1 (stereo unspecified)	%	-48.7

---

growth inhibition values for the molecules below.
- test: NCI Yeast Anticancer Drug Screen. Data for the bub3 strain (AID 167)
- condition-details: S. cerevisiae bub3 mutant strain, at 50.0 µM, active compounds read high
This is part of a sample that, as a whole, favours compounds with a hit. Of some 79,000 tested, about 15% had one in any assay. Active and inactive are the calls of the source. Rule as the data show it: active = growth inhibition above about 70%; inactive = the rest.

structure	growth inhibition
CC(=O)OCC(=O)[C@@]1(O)CC[C@H]2[C@@H]3CC[C@H]4[C@H](Br)C(=O)CC[C@]4(C)[C@H]3C(=O)C[C@@]21C	-8.1% (inactive)
Cc1cc(=O)[nH]c(NN)n1	21.9% (inactive)
O/N=C1/CCCCc2ccccc21	-14.4% (inactive)
Cc1ccc(C2(C#N)CCCC2)cc1	15.6% (inactive)
CC[O-].CC[O-].O=C([CH-]C(=O)c1ccccc1)CCCCCCCCC(=O)[CH-]C(=O)c1ccccc1.[Ti+4]	2.85% (inactive)
Cc1ccc(S(=O)(=O)NCC(=O)OCc2ccccc2)cc1	12.4% (inactive)
Cc1nc(C(N)=S)sc1C(=O)CC(=O)C(=O)Nc1ccccc1[N+](=O)[O-]	17.4% (inactive)
c1ccc2c(CN3CCN(Cc4c[nH]c5ccccc45)CC3)c[nH]c2c1	-2.8% (inactive)
Nc1ccc([N+](=O)[O-])c(C(F)(F)F)c1	-6.55% (inactive)

---

- test: NCI Yeast Anticancer Drug Screen. Data for the rad50 strain (AID 155);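 note: 0% = growth of vehicle-only cultures of the same strain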
- condition-details: S. cerevisiae rad50 strain growth inhibition; at 50.0 µM
- Experimental: Growth inhibition of yeast strains with defined genetic alterations is measured as a screen for potential anti-cancer activity. Selected strains with alterations in DNA damage repair or cell cycle control were exposed to compounds and growth inhibition was measured relative to vehicle treated controls. The strain used in this assay is rad50
About 79,000 compounds went through this panel and 15% of them were active in at least one assay; those are over-represented in the sample as a whole. The source made the active and inactive calls. Rule as the data show it: active = growth inhibition above about 70%; inactive = the rest.
Labels: true (1) = active, false (0) = inactive

molecule	category-label
CCOC(=O)C(C)c1nc2cc(N3CCOCC3)c(F)cc2[nH]c1=O (stereo not drawn)	false (0)
CCOC(=O)C(NC(C)=O)C(O)c1ccccc1 (stereo not drawn)	false (0)
O=S(=O)(CS(=O)(=O)c1ccc(Br)cc1)c1ccc(Br)cc1	false (0)
NNC(=O)CC(=O)Nc1ccccc1F	false (0)
Cc1ccccc1NC(=O)Nc1ccc(Nc2ccccc2)cc1	false (0)
CC1CCCCN1S(=O)(=O)N(C)C (stereo not drawn)	false (0)
CCCCN(CC)NC(=S)Nc1ccccc1	false (0)
CCOc1cc(N)nc(N)n1	false (0)
CNC(=S)C(N)CCCC1NC(=S)N(C)C1=O (stereo not drawn)	false (0)
CCCCCOC(=O)c1cccnc1	false (0)
Cc1ccc(F)c(N)c1	false (0)
O=S1(=O)NC(=NC2CCCC2)c2ccccc21	false (0)
O=Nc1ccc(O)c2ncccc12	false (0)
CC(C)c1ccc(OC(=O)Nc2c(Cl)cccc2Cl)cc1	false (0)
COC1=CC(=C(\C#N)c2ccc(Cl)cc2)/C=CC/1=N/O	false (0)
CCOC(=O)c1[nH]c(Cc2[nH]c(Cc3[nH]c(C(=O)OCC)c(C)c3C(=O)OCC)c(C(=O)OCC)c2C)c(C(=O)OCC)c1C	false (0)
CSc1ccc2c(c1)Cc1cc(NC(C)=O)ccc1-2	false (0)
O=C(Nc1ccc([N+](=O)[O-])cc1)Nc1nccnn1	false (0)
Cc1ccc(C(C)C)c(OC2OC(C(=O)O)C(O)C(O)C2O)c1 (stereo not drawn)	false (0)
COC(=O)c1c2c(cc3c1CC1(C3)Cc3ccc4c(c3C1=O)CCC4)CCC2 (stereo not drawn)	false (0)
CCN1C(=O)CCN(S(=O)(=O)c2ccc(-n3nc(C)cc3C)cc2)C1=S	false (0)
c1ccc(C(c2ccccc2)[n+]2ccccc2)cc1	false (0)
Clc1ccccc1N=NNc1ccccc1Cl	false (0)
CCOc1ccc(Nc2nc(C(Cl)(Cl)Cl)cc(C(Cl)(Cl)Cl)n2)cc1CN(CC)CC	true (1)
CNC(=O)OCc1c(COC(=O)NC)c(-c2ccsc2)n2c1CCC2	false (0)
COc1ccc(C(C)=O)cc1C=O	false (0)
CCC(Cc1cnc2nc(N)nc(N)c2n1)c1ccc(C(=O)NC(CCC(=O)O)C(=O)O)cc1 (stereo not drawn)	false (0)
COc1ccc(-c2c(C(C)=O)c(-c3ccccc3)n(C3OC(COC(C)=O)C(OC(C)=O)C(OC(C)=O)C3OC(C)=O)c(=S)c2C#N)cc1 (stereo not drawn)	false (0)

---

- test: NCI Yeast Anticancer Drug Screen. Data for the rad50 strain (AID 155);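 note: 0% = growth of vehicle-only cultures of the same strain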
- condition-details: S. cerevisiae rad50 strain growth inhibition; at 50.0 µM; active compounds read high
The panel holds about 79,000 compounds, 15% with a hit somewhere; the sample as a whole holds those more often.
value-type: growth inhibition (%)

compound	reading
COC(=O)c1ccccc1NC(=O)Nc1ccc(F)c([N+](=O)[O-])c1	3.75
CCCCCCC(=O)/C=C/c1ccc(OC)cc1	-12.5
C/C(O)=C(/C=NC(=S)c1ccncc1)C(=O)Nc1ccccc1	-36.8
CC(C(=O)c1ccccc1)C(=O)c1ccccc1	-2.7
CCOC(=O)CCc1cn2cc(Br)nc(OC)c2n1	-18.6
C=CCOC/C=C\CCOCC/C=C/COCC=C (tested in a mixture with another compound)	5
CCOC(=O)/C(C#N)=C(O)\C(=C\c1ccc(Cl)cc1)NC(=O)c1ccc(NC(C)=O)cc1	8.9
CCC/C=C/c1cc2c(cc1O)CC[C@@H]1[C@@H]2CC[C@]2(C)[C@@H](O)CC[C@@H]12	19.2
O=C(O)c1nn(-c2ccc(Cl)cc2)c2c1C(=O)c1ccccc1C2=O	20.9
COC(=O)C1(CC(=O)CC(=O)CC2(C(=O)OC)NC(=S)NC(=O)C2C#N)NC(=S)NC(=O)C1C#N (stereo not given)	-17.4
